Reported self-cleavage by item:
B1: OR4K15 (parent)
chain: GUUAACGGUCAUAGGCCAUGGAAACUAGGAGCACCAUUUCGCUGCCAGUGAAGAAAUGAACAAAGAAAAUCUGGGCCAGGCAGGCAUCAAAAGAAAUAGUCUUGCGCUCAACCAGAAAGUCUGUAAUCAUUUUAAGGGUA

- Variants of: B1
- test.method.notes: self-cleavage, relative activity (ratio to wild type); higher = more cleavage; in vitro, sequencing; the parent is a self-cleaving ribozyme
Hey, just send me the number, nothing else.

# variant.notation, self-cleavage
records = [
    ("U49A U131C", 1.01),
]

Query: Need self-cleavage, item U3G G41U
Result: 1
